# experimental_details: Metabolic stability in human liver microsomes (in vitro t1/2)
# Format: in vitro ADME
# recorded_conditions: human, human liver microsomes, pH 7.4, Table 8b; 0.5 mg/mL HLM, 2 mM NADPH, 37° C.; read-out: t1/2 Experiment 2
# Protocol: Human liver microsomes (20 mg/mL) were obtained from Xenotech, LLC (Lenexa, Kans.). β-nicotinamide adenine dinucleotide phosphate, reduced form (NADPH), magnesium chloride (MgCl2), and dimethyl sulfoxide (DMSO) were purchased from Sigma-Aldrich. 7.5 mM stock solutions of test compounds were prepared in DMSO. […] Supernatants were transferred to another 96-well plate and analyzed for amounts of parent remaining by LC-MS/MS using an Applied Bio-systems API 4000 mass spectrometer. […]
quantity_measured: half-life (min)

molecule	quantity_measured	test_result
CC(C)[C@H]1c2ccc(F)cc2CC[C@@]1(CCN(C)CCCc1nc2ccccc2[nH]1)OC(=O)C1CC1 [NNC 55-0396, reference compound]	half-life	6.55
[2H]C([2H])([2H])N(CC[C@]1(OC(=O)C2CC2)[C@@H](C(C)C)c2ccc(F)cc2C([2H])([2H])C1([2H])[2H])C([2H])([2H])C([2H])([2H])C([2H])([2H])c1nc2ccccc2[nH]1 [Compound 707a]	half-life	7.03
[2H]C1([2H])c2cc(F)ccc2[C@H](C(C)C)[C@](CCN(C)CCCc2nc3ccccc3[nH]2)(OC(=O)C2CC2)C1([2H])[2H] [Compound 704a]	half-life	6.6

---

# experimental_details: Metabolic stability in human liver microsomes (in vitro t1/2)
# Assay type: in vitro ADME
# recorded_conditions: human, human liver microsomes, pH 7.4, Table 8b; average of Experiments 1 and 2; read-out: t1/2 Ave
Quick reference for half-life among some compounds

compound	half-life
CC(C)[C@H]1c2ccc(F)cc2CC[C@@]1(CCN(C)CCCc1nc2ccccc2[nH]1)OC(=O)C1CC1 [NNC 55-0396, reference compound]	6.56 min
[2H]C([2H])([2H])N(CC[C@]1(OC(=O)C2CC2)[C@@H](C(C)C)c2ccc(F)cc2C([2H])([2H])C1([2H])[2H])C([2H])([2H])C([2H])([2H])C([2H])([2H])c1nc2ccccc2[nH]1 [Compound 707a]	7.15 min
[2H]C1([2H])c2cc(F)ccc2[C@H](C(C)C)[C@](CCN(C)CCCc2nc3ccccc3[nH]2)(OC(=O)C2CC2)C1([2H])[2H] [Compound 704a]	6.38 min

---

# experimental_details: Metabolic stability in human liver microsomes (in vitro t1/2)
# Assay type: in vitro ADME
# recorded_conditions: human, human liver microsomes, pH 7.4, Table 8a; 0.5 mg/mL HLM, 2 mM NADPH, 37° C.; read-out: t1/2 Experiment 2
Counter-ions that a name gives are not always drawn.
Quick reference for half-life among some compounds

compound	half-life
COCC(=O)O[C@]1(CCN(C)CCCc2nc3ccccc3[nH]2)CCc2cc(F)ccc2[C@@H]1C(C)C [Mibefradil, dihydrochloride, reference compound]	8.55 min
[2H]C([2H])([2H])N(CC[C@]1(OC(=O)COC)[C@@H](C(C)C)c2ccc(F)cc2C([2H])([2H])C1([2H])[2H])C([2H])([2H])C([2H])([2H])C([2H])([2H])c1nc2ccccc2[nH]1 [Compound 703a]	7.72 min
[2H]C1([2H])c2cc(F)ccc2[C@H](C(C)C)[C@](CCN(C)CCCc2nc3ccccc3[nH]2)(OC(=O)COC)C1([2H])[2H]	4.98 min
